Test system: NCI-H522 lung
ASSAY DETAILS: NCI tumour cell line growth inhibition, 48 h; in the data active = GI50 below about 0.43 µM; inactive = the rest
Outcomes: 1 (yes) = active, 0 (no) = inactive

MOLECULAR STRING	ANSWER LABEL
COc1ccc(-c2cn(-c3cccc(C(=O)/C=C/c4ccc(O)c(OC)c4)c3)c(=O)[nH]2)cc1	0 (no)
CC(=O)OC(C)(C)/C=C/C(=O)[C@](C)(O)[C@H]1[C@H](O)C[C@@]2(C)[C@@H]3CC=C4[C@@H](C[C@H](O)C(=O)C4(C)C)[C@]3(CO)C(=O)C[C@]12C	1 (yes)
Cc1cccc(Cl)c1NC(=O)c1cnc(Nc2cc(N3CCOCC3)cc(N3CCOCC3)c2)s1	1 (yes)
O=C1C(Cl)=C(Nc2cccc(O)c2)C(=O)N1Cc1ccc(Cl)cc1	0 (no)
O=C(NCCN1CCC(O)CC1)c1cc2c(o1)C(=O)c1ccccc1C2=O	1 (yes)
O=c1oc(-c2ccccc2)cc2cccc(O)c12	0 (no)
C/C(=N\NC(=O)c1cccnc1)c1cccc(/C(C)=N/NC(=O)c2cccnc2)n1.CC(=O)[O-].CC(=O)[O-].[Zn+2]	1 (yes)

* * *

Let's look at some molecules and their measured TGI.
Tested on: M19-MEL melanoma
ASSAY DETAILS: NCI tumour cell line growth inhibition, 48 h

MOLECULE	TGI
O=[P+](O)c1cc2ccccc2c2ccccc12	> 100 µM
COc1cc2cc3c4c(cc(OC)c(OC)c4c2cc1OC)CCN3C(=O)N(C)C	> 100 µM
C[C@H](N)C(=O)N[C@@H]1[C@H]2C(=C(O)C[C@@H](O)[C@@H]2O)C(=O)O[C@@H]1C	> 100 µM
COc1ccc(/C(Cl)=C(\C=O)c2ccccc2)cc1OC	> 100 µM
C[C@H](CN1CC(=O)NC(=O)C1)N1CC(=O)NC(=O)C1	> 100 µM
CCOC(=O)c1cc2c(cn1)[nH]c1cccc(N)c12	> 100 µM
CN(C(=O)C12C3(C(=O)C(C)(C)C)C4C5(C#N)C3C1(C(=O)C(C)(C)C)C5C42C(=O)C(C)(C)C)C(C)(C)C (stereo unspecified)	> 50 µM
CC(=O)Nc1ccc(-c2nnc(SCC(=O)Nc3cccc([N+](=O)[O-])c3)o2)cc1	28.3 µM
CCOC(=O)[C@H]1CSC[C@@H](C(=O)OC)N1	> 100 µM
OC(C1CO1)C(O)C1CO1 (stereo unspecified)	150 µM
CC(C)(c1ccc(Oc2ccc(C#N)c(C#N)c2)cc1)c1ccc(Oc2ccc(C#N)c(C#N)c2)cc1	> 100 µM

* * *

System: SW-620 colon
ASSAY DETAILS: NCI tumour cell line growth inhibition, 48 h
MEASURE: TGI

MOLECULE	READOUT VALUE
CCOc1ccccc1N1C(=O)C(=O)C(c2nc3ccccc3o2)/C(=N\N)C1=O (stereo not given)	> 100 µM
CC(C)(O)[C@@H]1CC[C@@]2(C)CCC[C@H](O)[C@H]2C1	> 100 µM
COc1cc2cc3c4c(cc(OC)c(OC)c4c2cc1OC)CCN3C(=O)N(C)C	> 100 µM
COc1ccc(-c2nnc(CCCCCCCCc3nnc(-c4ccc(OC)cc4)n3N)n2N)cc1	> 100 µM
COc1ccc(-c2nnc(-c3c(C)n(C)n(-c4ccccc4)c3=O)o2)cc1	> 100 µM
CCOC(=O)Cn1nnc2cc(Nc3nc4ccccc4nc3C(=O)OCC)ccc21	> 100 µM
O=C1C(Cl)=C(Nc2cccc(O)c2)C(=O)N1Cc1ccc(Cl)cc1	24.8 µM
NNC(=O)CCC(NS(=O)(=O)c1ccc(Cl)cc1)C(=O)NN (stereo not given)	> 100 µM
N#Cc1ccc(C2C3=C(CCCC3=O)OC3=C2C(=O)c2ccccc2C3=O)cc1 (stereo not given)	5.69 µM
CC(C)(C)c1cc(/C=C/C(=O)CC(=O)/C=C/c2cc(C(C)(C)C)c(O)c(C(C)(C)C)c2)cc(C(C)(C)C)c1O	> 50 µM

Where do these numbers come from? They come from PubChem BioAssay (NCI).
